Experiment: fission yeast growth modulation, primary screen, strain 972, OD600, 24 h, no modulator (AID 1090);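 further: basal condition with compound alone and no growth modifier present; test concentration not given here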
Conditions: S. pombe 972 growth, higher = more signal, called active from +8 up or from −8 down
property.name: z-score
Write the number on its own, no unit after it.

Recorded results for 3 compounds are shown here.
CCCC[C@@H]1C[C@H]1[C@@H](NC(=O)c1ccc(-c2ccccc2)cc1)c1ccc(-c2ccccc2)cc1 | -6.62
C=C[C@H](COC(C)=O)N(Cc1ccc(OC(C)=O)c(OC)c1)S(=O)(=O)c1ccc(Br)cc1 | -1.08
COCC1=C2[C@@H](CCc3ccccc3)OB(O)C[C@@H]2[C@@H]2C(=O)N(Cc3ccccc3)C(=O)[C@@H]2C1 | -1.22

GET /value?item= COc1ccc(C(O)C2C=CC3C(=O)N(C)C(=O)C3N2Nc2ccccc2)cc1OCc1ccccc1 (configuration not stated) &field=z-score returns 1.11

GET /value?item= `COc1ccc(C#Cc2ccc3c(c2)[C@]2(C(=O)N3)[C@H](C(=O)NC[C@H](O)c3ccccc3)[C@H]3C(=O)O[C@H](c4ccccc4)[C@H](c4ccccc4)N3[C@@H]2c2ccccc2OCCO)cc1` &field=z-score returns 2.01

GET /value?item= `O=C1O[C@@H](c2ccccc2)[C@@H](c2ccccc2)N2[C@@H](c3ccccc3OCCO)[C@]3(C(=O)Nc4ccc(C#CC5(O)CCCCCC5)cc43)[C@@H](C(=O)Nc3nc4ccccc4s3)[C@H]12` &field=z-score returns 1.96

GET /value?item= `C=CC[C@@]1(C(=O)O)N=C(c2ccc(OCCCO)cc2)O[C@@H]1c1ccccc1N=[N+]=[N-]` &field=z-score returns -0.594

* * *

Experiment: yeast growth modulation, basal conditions, primary screen, YJM789 clinical isolate, OD600, 24 h (AID 1089);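 further: growth of clinical yeast isolate S. cerevisiae YJM 789 seeded 1000 cells per well; test concentration not given here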
Conditions: S. cerevisiae YJM789 growth, called active from +8 up or from −8 down
Active and inactive are the calls of the source.
Write down one outcome, taken from active, inactive

Reference set, count: 5
CC(C)NC(=O)[C@@H]1c2ccccc2C(=O)N(Cc2ccccc2)[C@H]1c1ccc(CO)cc1 | inactive
COc1cc(CO)ccc1OC(C)=O | inactive
CC(C)N1C(=O)c2ccccc2[C@@H](C(=O)NCCCN(C)C)[C@@H]1c1ccc(CO)cc1 | inactive
COCCOC(=O)N1C(=O)[C@@]2(c3cc(C#CCCO)ccc31)[C@H](C(=O)NC[C@H](O)c1ccccc1)[C@H]1C(=O)O[C@H](c3ccccc3)[C@H](c3ccccc3)N1[C@@H]2c1ccc(O)cc1 | inactive
COCC(=C=CC[C@H](O)c1ccc(OCCO)cc1)C[C@H](O)c1cc(Cl)cc(Cl)c1O | active

Hi team, can someone confirm the assay call for `COC(=O)C[C@@H]1C[C@H](C)[C@]2(O1)C(=O)N(Cc1ccccc1)c1ccc(NC(C)=O)cc12` ?
inactive

Hi team, can someone confirm the assay call for `COc1ccc([Si](C)(C)[C@H]2[C@H](CCn3cc(CCO)nn3)O[C@@]3(C(=O)N(Cc4ccc(N5CCOC5=O)cc4)c4ccccc43)[C@@H]2C)cc1` ?
inactive

Hi team, can someone confirm the assay call for `NCCCCCNC(=O)[C@H]1C[C@H]2C(=O)NCC(=O)N2[C@H]1c1cccc(OCCO)c1` ?
inactive

Hi team, can someone confirm the assay call for [N-]=[N+]=NCc1ccccc1C[C@]1(C(=O)NCC(O)CO)N=C(c2ccc(OCCCO)cc2)O[C@H]1c1ccccc1N=[N+]=[N-] (stereo not given in full) ?
inactive

Hi team, can someone confirm the assay call for `COCCOC(=O)N1C(=O)[C@@]2(c3cc(C#CCCO)ccc31)[C@H](c1ccccc1OCCO)N1[C@H](c3ccccc3)[C@H](c3ccccc3)OC(=O)[C@H]1[C@@H]2C(=O)N1CCN(c2ncccn2)CC1` ?
inactive

Hi team, can someone confirm the assay call for `CN(C)C(=O)[C@]1(CCC(=O)OC(C)(C)C)N=C(c2ccc(OCCCO)cc2)O[C@@H]1c1ccccc1N=[N+]=[N-]` ?
inactive

Hi team, can someone confirm the assay call for `CCCN1C(=O)[C@]2(COC(c3ccc(OCCCO)cc3)=N2)Cc2ccccc21` ?
inactive

Hi team, can someone confirm the assay call for `C=CCN1C(=O)[C@]2(O[C@H](CCO)[C@@H]([Si](C)(C)c3ccc(OC)cc3)[C@@H]2C)c2cc(NC(=O)[C@H](C)O)ccc21` ?
inactive

Hi team, can someone confirm the assay call for `CC(C)C(=C=CC[C@H](O)c1cccc(OCCO)c1)C[C@H](O)COCc1ccccc1` ?
inactive

Hi team, can someone confirm the assay call for COc1ccc(C(O)C2C=CC3C(=O)N(c4ccccc4)C(=O)C3N2Nc2ccc([N+](=O)[O-])cc2)cc1OCc1ccccc1 (stereo not given) ?
inactive
